Test system: HCC1806
Experiment: Antiproliferative activity against ER, PR, HER2-deficient human HCC1806 cells as growth inhibition after 48 hrs by MTT assay
Format: functional, cell-based
Conditions: HCC1806, 48 h
assay.metric: IC50 (µM)

Here is how some compounds turned out for IC50.
Cc1c(CO)c(CO)c2n1[C@H](c1ccccc1)SC2(C)C ... 41.7
Cc1c(CO)c(CO)c2n1[C@@H](c1ccccc1)SC2 ... 81.4
COc1ccc([C@H]2SCc3c(CO)c(CO)c(C)n32)cc1 ... 28

[1] Cc1c(CO)c(CO)c2n1[C@@H](c1ccc(O)cc1)SC2
[2] Cc1c(CO)c(CO)c2n1[C@H](c1ccccc1)SC2
**Q:** Look at 1 and 2 . Which one has the lower recorded IC50 number? Use the label to indicate which entry you chose.
**A:** 1
(1: 26.4 µM, 2: 63.1 µM)

====

Test system: HCC1806
Assay: Antiproliferative activity against ER, PR, HER2-deficient human HCC1806 cells as growth inhibition after 72 hrs by MTT assay
Type: functional, cell-based
Details: HCC1806, 72 h
assay.metric: IC50 (µM)

Cc1c(CO)c(CO)c2n1[C@H](c1ccccc1)SC2(C)C ... 26.9

[P] Cc1c(CO)c(CO)c2n1[C@@H](c1ccccc1)SC2
[Q] COc1ccc([C@H]2SCc3c(CO)c(CO)c(C)n32)cc1
[R] Cc1c(CO)c(CO)c2n1[C@@H](c1ccc(O)cc1)SC2
[S] Cc1c(CO)c(CO)c2n1[C@H](c1ccccc1)SC2
**Q:** # desc sort on IC50 across 4 molecules Kindly provide the labels arranged according to the requested ordering.
**A:** S, P, Q, R
